Biological target: aldose reductase (Bos taurus, UniProt P16116)
Construct: isolated in known manner from bovine lenses
Assay: in vitro inhibition of partially purified aldose reductase isolated from bovine lenses (spectrophotometric)
Details: read-out: IC50 in the in vitro test
reported_metric: IC50

Look up and report measured IC50 for this entry: O=[N+]([O-])CS(=O)(=O)c1cccs1 54 nM
